Compiled literature IC50, tested on Lysine-specific histone demethylase 1A (Homo sapiens).
Express the result in nM but write the number alone.

Study these solved cases before continuing.
| compound | experimental_readout | test_value |
| --- | --- | --- |
| Cc1ccc(-c2cc3c(cc2-c2ccc(C#N)cc2)c(C(=O)N2CCC(N)CC2)cn3S(=O)(=O)c2ccc(F)cc2)cc1 | IC50 | 50 |
| Oc1ccc(CC2NCCc3cc(O)c(O)cc32)cc1 (centres undefined) | IC50 | 1470 |
| N[C@@H]1C[C@H]1c1ccc(NC(=O)c2ccnc(-c3cc(C(=O)O)ccn3)c2)cc1 (relative stereo) | IC50 | 2200 |

In the following, a different compound is considered.
Query :: Look up and report IC50, with Lysine-specific histone demethylase 1A (Homo sapiens) as system, for `COc1ccc(-c2cc3[nH]cc(C(=O)N4CCC(N)CC4)c3cc2-c2ccc(C#N)cc2)c(F)c1`
Result :: 208

###

pIC50: −log10 of the molar value.
Record: compiled pIC50 on Lysine-specific histone demethylase 1A (Homo sapiens, UniProt O60341) from multiple reports.

Reference set (3 entries):
| compound | pIC50 |
| --- | --- |
| COCCOc1cc2ncnc(Nc3ccc(F)cc3)c2cc1OCCOC | < 4.30 |
| Nc1cccc(/C=C/c2ccc(O)c(-c3ccccn3)c2)c1 | 6.52 |
| CCOC(=O)c1ccc(NS(=O)(=O)C2CC3OC2C(c2ccc(O)cc2)=C3c2ccc(O)cc2)cc1 (centres undefined) | < 4.30 |

Query :: Tell me its pIC50 on Lysine-specific histone demethylase 1A (Homo sapiens, UniProt O60341): `COCCOc1cc2ncnc(Nc3ccc(Br)cc3)c2cc1OCCOC`
Result :: < 4.30

###

Across several studies, molecules have been characterized by their pIC50 on Lysine-specific histone demethylase 1A (Homo sapiens, UniProt O60341); a selection follows.
pIC50: −log10 of the molar value.
Tick 1 if pIC50 is 6 or greater. Tick -1 if pIC50 is less than 6.

| molecule | study_target | category |
| --- | --- | --- |
| Cc1ccc2oc(=O)cc(Cn3cc(CSC(=S)N4CCN(C(=O)OC(C)(C)C)CC4)nn3)c2c1 | Lysine-specific histone demethylase 1A (Homo sapiens, UniProt O60341) | -1 |

Query :: Can Cc1cccc(NC(=O)C2CC3OC2C(c2ccc(O)cc2)=C3c2ccc(O)cc2)c1 (stereo not given) be said to have pIC50 at or above 6?
Result :: -1

Query :: Is it the case that N[C@H]1C[C@@H]1c1ccc(NC(=O)CCCNC(=O)c2ccc(O)c3ncccc23)cc1 (relative stereo) has pIC50 reaching or exceeding 6?
Result :: 1

Query :: Can Cc1cc(Nc2cccc3c2CN(C2CCC(=O)NC2=O)C3=O)n2nc(SCc3nc4ccccc4[nH]3)nc2n1 (stereo not given) be said to have pIC50 at or above 6?
Result :: -1

Query :: I'd appreciate it if you could say whether `Cc1cc(NNC(=O)c2cnccn2)n2nc(SCc3nc4ccccc4[nH]3)nc2n1` has pIC50 at least equal to 6.
Result :: 1

Query :: Item `Cc1cc(Nc2ccccc2)n2nc(SCc3nc4ccccc4[nH]3)nc2n1` with pIC50 of 6 or above?
Result :: -1

Query :: Dear colleague, could you confirm whether `Cc1ccc(-c2cc3[nH]cc(C(=O)N4CCC[C@H](N)C4)c3cc2-c2ccc(C#N)cc2)cc1` has pIC50 at or above 6?
Result :: 1

Query :: Does pIC50 meet or surpass 6 for `Cc1ccc(-c2cc3[nH]cc(C(=O)NCC4CCNCC4)c3cc2-c2ccc(C#N)cc2)cc1` ?
Result :: 1

Query :: For this molecule, is measured pIC50 6 or higher? Cc1cc(=O)oc2cc(OS(=O)(=O)C3CC4OC3C(c3ccc(O)cc3)=C4c3ccc(O)cc3)ccc12 (stereo not given)
Result :: -1

Query :: Does the molecule `Cc1ccc(-c2cc3[nH]cc(C(=O)NCCN)c3cc2-c2ccc(C#N)cc2)cc1` have recorded pIC50 that is 6 or more?
Result :: 1

Query :: Please tell me: is the molecule `Cc1cc(Nc2ccccc2)n2nc(SCc3ccccc3)nc2n1` at or over 6 in terms of pIC50?
Result :: -1

Query :: I'd appreciate it if you could say whether `Oc1ccc(/C=C/c2cc(O)cc(O)c2)cc1` has pIC50 at least equal to 6.
Result :: -1

Query :: In plain terms: is recorded pIC50 at least 6 for `Cc1cc(N2CCN(CCO)CC2)n2nc(SCc3ccccc3)nc2n1` ?
Result :: -1
